Ref: ChEMBL document CHEMBL1137870

Listed here are compounds together with their documented AUC.
assay: Area under curve in plasma was determined at the peroral dose of 10 mg/kg in diet-induced obese (DIO) mice; type: ADME, organism-based; design: dose 10 mg/kg, route oral; conditions: mouse, in vivo, po

[
  {
    "Substance smiles": "Nc1ccc2cccc(OCCCNCc3ccc(Cl)c(C(F)(F)F)c3)c2n1",
    "AUC, ng·h/mL": 9960
  },
  {
    "Substance smiles": "N#Cc1cccc(C(=O)NCCCOc2cccc3ccc(N)nc23)c1",
    "AUC, ng·h/mL": 328
  },
  {
    "Substance smiles": "Nc1ccc2cccc(OCCCNC(=O)c3cccc(OC(F)(F)F)c3)c2n1",
    "AUC, ng·h/mL": 424
  }
]
